The reported numbers originate from a melting point compilation (Tetko et al.; mined from patent text by program, amines drawn as free bases though some values may be those of a salt).

endpoint-label: melting point

Field: example entries. Status: answers known.
>>> print(df.to_string())
                                        smi  value_observed
0        NS(=O)(=O)c1cc2c(c(C(=O)O)c1)OCCO2   272 to 274 °C
1  C[C@@H](NC(=O)c1c[nH]c2ncc(-c3nn(C)c4cc(Cl)ccc34)nc12)C(=O)N1CC[C@H](F)C1   269 to 271 °C

From here, focus on the item given below.
## Task Recorded melting point of COC(=O)c1ccc(CNC(=O)OCc2ccccc2)cc1OCc1ccccc1 , please.
## Result 106 to 107 °C

* * *

Entries and their melting point

                                   compound  endpoint_label  value_observed
0  CC(O)(c1ccccc1)c1cc(Oc2ccc(Cl)cc2)ccc1O (stereo not drawn)   melting point   103 to 104 °C
1  CC(C(=O)O)c1ccc(-c2ccccc2F)c(O)c1 (stereo not drawn)   melting point   110 to 111 °C
2  CN(C)CC1COc2ccc(NC(=O)c3ccc(-c4ccc(Cl)cc4)cc3)cc2O1 (stereo not drawn)   melting point   158 to 159 °C
3               COc1cc(N)c2nc(C)cc(C)c2c1OC   melting point   108 to 110 °C
4  COc1cc(C2=CCCc3ccccc32)c(Cl)cc1C(=O)N1Cc2cccn2Cc2ccccc21   melting point   209 to 210 °C
5                 CC(C)(C)c1ccc(O)c(C=NO)c1   melting point   116 to 118 °C
6  Cn1cc(C(=O)NCc2ccc(Cl)cc2)c(=O)c2cc(CN3CCOCC3)cc(C#CCF)c21   melting point   189 to 191 °C

From here, focus on the item given below.
## Task Recorded melting point of COC(=O)CNc1cccc2c1C(=O)N(C1CCC(=O)NC1=O)C2=O (stereo not drawn) , please.
## Result 210 to 212 °C

* * *

endpoint-label: melting point

>>> df
                                   compound  value_observed
0  CCOC(=O)c1ccc(N2C(=O)CCC2CO)c(NC(=NC(=O)OC(C)(C)C)NC(=O)OC(C)(C)C)c1 (stereo not given)   104 to 110 °C
1  OCc1cc(CO)n(C(c2ccccc2)(c2ccccc2)c2ccccc2)n1   180 to 182 °C
2                      CC(=O)c1c2cnnc-2sn1C   130 to 131 °C

## Task Recorded melting point of COc1nc(N)nc(OCC(F)(F)F)n1 , please.
## Result 78 to 80 °C

## Task Could you do the same for O=C1OC(=O)C2=C1CCOc1ccccc12 , please?
## Result 142 to 143 °C

## Task Could you do the same for CNC(=S)SCCC(=O)N1CCC[C@H]1C(=O)O , please?
## Result 127 to 129 °C

* * *

Entries and their melting point

Field: example entries. Status: answers known.
>>> df
                                   compound  value_observed
0  CC#CC(C)(C)NC(=O)C(CC)Oc1cc(C#N)cc(OC)c1 (stereo unspecified)     97 to 98 °C
1  O=C1CCCCC1c1ncc[nH]1 (stereo unspecified)   104 to 105 °C
2  CC1(C)SC(CCCc2ccc(C(=O)O)cc2)N(CCC2(O)CCCCC2)C1=O (stereo unspecified)   132 to 137 °C
3  CN(C(=O)Nc1ccccc1CCc1cc(C(C)(C)C)c(O)c(C(C)(C)C)c1)C1CCN(Cc2ccccc2)CC1   144 to 146 °C
4  Cc1n[nH]c(=O)n1-c1ccc(OCC(F)(F)C(F)F)cc1   206 to 207 °C
5                      NNc1cc(=O)[nH]c(N)n1   314 to 315 °C
6  CCCCCC(Sc1ccc(OC)cc1)C(=O)O (stereo unspecified)     90 to 95 °C
7  CCOCc1nc2c(N)nc(C)c(C)c2n1CCCCS(=O)(=O)N(C)C   158 to 160 °C

## Task Recorded melting point of Cc1c(CO)oc2c(Br)cccc12 , please.
## Result 103 °C

## Task Could you do the same for COc1ccc(C(O)CNCCc2ccc(OC)c(OC)c2C)cc1 (stereo unspecified) , please?
## Result 128 to 129 °C

## Task Could you do the same for CCCCCCCCCCCCCCCCCCOc1cc(C(=O)O)cc(C(=O)N(CC(=O)O)CC(=O)O)c1 , please?
## Result 108 to 112 °C

## Task Could you do the same for N#CCOc1ccc(-c2ccccc2)cc1 , please?
## Result 81 to 83 °C

## Task Could you do the same for CCc1c(C(=O)c2cc(C)cc(C)c2)n(CC=CC(=O)OC(C)C)c(=O)[nH]c1=O , please?
## Result 175 to 176 °C

## Task Could you do the same for O=C(O)C(=O)Nc1cc(NC(=O)C(=O)O)cc(C(=O)O)c1 , please?
## Result > 320 °C

## Task Could you do the same for Cc1ccc2cccc(OCc3c(Cl)ccc(S(=O)(=O)N(C)Cc4ccccc4)c3Cl)c2n1 , please?
## Result 154 °C

## Task Could you do the same for CC(C)c1cc(C(C)C)c(S(=O)(=O)n2ccc3ccccc32)c(C(C)C)c1 , please?
## Result 131 to 133 °C

* * *

Entries and their melting point

Field: example entries. Status: answers known.
In [3]: df
Out[3]:
                                   molecule  value_observed
0  Cc1nc(-n2ccc(C(F)(F)F)cc2=O)sc1C(=O)NCc1ccccc1   197 to 198 °C
1  O=c1c(CCCc2ccncc2)cc2cccnc2n1-c1cccc([N+](=O)[O-])c1   209 to 210 °C
2  CN1CCN(C(=O)c2ccc(-c3cnc4c(c3)N(Cc3cc(F)c(F)cc3F)C(=O)CN4)cc2)CC1          238 °C
3  Cn1c2c(ccc1=O)C(NCCc1ccc([N+](=O)[O-])cc1)CCC2 (configuration not stated)   138 to 139 °C
4  Cc1ccccc1-n1c(-c2sc(Nc3ccccc3)nc2-c2ccccc2)nc2ccccc2c1=O   141 to 143 °C
5  Cc1cc(Cl)cc(Cl)c1CNc1c(NC(C)(C)C)c(=O)c1=O   264 to 268 °C
6  CC(=O)OCC1OC(n2cc(Cc3ccc4occc4c3)c3c(Cl)cccc32)C(OC(C)=O)C(OC(C)=O)C1OC(C)=O (configuration not stated)   186 to 188 °C
7       CC(C)(C)OC(=O)NCCNC(=O)c1ccc(Cl)cn1   106 to 108 °C

From here, focus on the item given below.
## Task Recorded melting point of Cc1nc2cccc(CCN3CCC(c4noc5cc(F)ccc45)CC3)c2c(=O)[nH]1 , please.
## Result 164 to 165 °C

* * *

Entries and their melting point

In [3]: df
Out[3]:
                                   compound  value_observed
0  O=C(Nc1ccccc1C(F)(F)F)c1c(O)c2ccccc2oc1=O   157 to 159 °C
1             Cc1ccc(N)cc1NC(=O)c1ccc(O)cc1   277 to 278 °C
2  O=C(NCCNCC(O)COc1ccccc1)c1cc(O)ccc1O (centres undefined)   178 to 180 °C

From here, focus on the item given below.
## Task Recorded melting point of CCCCc1ncc(CNC(C)(Cc2cccs2)C(=O)O)n1Cc1ccccc1Cl (centres undefined) , please.
## Result 109 to 112 °C

* * *

Entries and their melting point

                                   molecule  endpoint_label  value_observed
0  O=C1CCCN1C1=CC(CF)(CF)Oc2ccc(C(F)(F)F)cc21   melting point   125 to 127 °C
1  CCO[C@@H]1C[C@@H]2CN(C(=O)[C@@H](NC(=O)[C@H](C)NC)C3CCC(F)(F)CC3)[C@H](C(=O)N[C@@H]3CCOc4ccccc43)CN2C1   melting point          179 °C
2    CCC(CC)(CCCS(N)(=O)=O)COc1nn2ccnc2cc1C   melting point   139 to 140 °C

## Task Recorded melting point of CC(CC(C)Oc1ccc(-c2ccc(C#N)cc2)cc1)Oc1ccc(-c2ccc(C#N)cc2)cc1 (configuration not stated) , please.
## Result 140 °C

## Task Could you do the same for OCc1cn(Cc2ccccc2)nc1OCc1ccccc1 , please?
## Result 79 to 80 °C

## Task Could you do the same for CCCCNC(=O)NS(=O)(=O)c1sccc1C , please?
## Result 144 to 146 °C

## Task Could you do the same for O=[N+]([O-])c1ccc(Oc2nn(Cc3ccccc3F)c3ncccc23)nc1 , please?
## Result 111 to 113 °C
